Where these numbers come from: ChEMBL document CHEMBL1156809

Catalogue of compounds with associated TD50
measurement description: Behavioral toxicity in po dosed albino Sprague-Dawley rat
Assay type: organism-based
cond: in vivo

>  <compound>
CCc1ccc(CNC(=O)[C@H](COC)NC(C)=O)cc1

>  <TD50>
> 30 mg/kg

$$$$

Noted for COC[C@@H](NC(C)=O)C(=O)NCc1ccccc1 [LACOSAMIDE] : its TD50 reads > 500 mg/kg

Noted for COC[C@H](NC(C)=O)C(=O)NCc1ccccc1 : its TD50 reads > 30 mg/kg

====

Catalogue of compounds with associated TD50
measurement description: Behavioral toxicity in po dosed albino Sprague-Dawley rat
Type: organism-based
cond: in vivo

Use the examples below as a reference point.
>  <smiles repr>
COC[C@@H](NC(C)=O)C(=O)NCc1ccc(OC)cc1

>  <result>
> 500 mg/kg

$$$$
>  <smiles repr>
COC[C@@H](NC(C)=O)C(=O)NCc1ccc(-c2ccccc2)cc1

>  <result>
49 mg/kg

$$$$
>  <smiles repr>
COC[C@@H](NC(C)=O)C(=O)NCc1ccc(Br)cc1

>  <result>
300 mg/kg

$$$$
>  <smiles repr>
COCc1ccc(CNC(=O)[C@@H](COC)NC(C)=O)cc1

>  <result>
> 500 mg/kg

$$$$
>  <smiles repr>
COC[C@@H](NC(C)=O)C(=O)NCc1ccc(C(C)(C)C)cc1

>  <result>
> 30 mg/kg

$$$$

Noted for COC[C@@H](NC(C)=O)C(=O)NCc1ccc(OC(F)(F)F)cc1 : its TD50 reads 63 mg/kg

Noted for COCC#Cc1ccc(CNC(=O)[C@@H](COC)NC(C)=O)cc1 : its TD50 reads 100 mg/kg

Noted for COC[C@H](NC(C)=O)C(=O)NCc1ccc(N=[N+]=[N-])cc1 : its TD50 reads > 30 mg/kg

Noted for COC[C@H](NC(C)=O)C(=O)NCc1ccc(C#N)cc1 : its TD50 reads > 30 mg/kg

Noted for COC[C@@H](NC(C)=O)C(=O)NCc1ccccc1OC(F)(F)F : its TD50 reads > 500 mg/kg

Noted for CCCc1ccc(CNC(=O)[C@@H](COC)NC(C)=O)cc1 : its TD50 reads > 30 mg/kg

Noted for COCCCc1ccc(CNC(=O)[C@@H](COC)NC(C)=O)cc1 : its TD50 reads > 500 mg/kg
